Test system: UACC-257 melanoma
protocolDetails: NCI tumour cell line growth inhibition, 48 h

| compound | TGI |
| --- | --- |
| O=C1Nc2cc([N+](=O)[O-])ccc2NC1/C(=N\Nc1ccccc1)C(O)c1cccc([N+](=O)[O-])c1 (configuration not stated) | > 100 µM |
| COC(OC)C1OC(CO)C(n2ccc(N)nc2=O)C1O (configuration not stated) | > 100 µM |
| Cc1cc(=O)oc2cc(OCc3c(F)cccc3Cl)ccc12 | > 100 µM |
| CCOC(=O)/C=C(\C(=O)OCC)n1ccc(N)nc1=O | > 100 µM |
| C=CCSC1=N/C(=C\c2ccccc2)C(=O)N1CC=C | > 82.5 µM |
| CC(C)(C)C1(COC(=O)c2ccc(N)cc2)COC1 | > 100 µM |
| C#Cc1c(C(N)=O)ncn1C1OC(COP(=O)(OCc2ccc([N+](=O)[O-])o2)N(C)CCCCCl)C(O)C1O (configuration not stated) | > 100 µM |
| CC#CC1/C(=C\C(=O)OC)CCCC1O (configuration not stated) | > 100 µM |
| O=C1C=C(Br)c2c(Br)sc(Br)c21 | 12.6 µM |
| O=c1[nH]cnc2[nH]ncc12 | > 5000 µM |
| Cc1cc(-c2nc3ccccc3s2)ccc1NC(=O)[C@H](C)N | 33.2 µM |
| O=C(N/N=C/c1ccccc1O)C(=O)Nc1ccc(F)cc1 | 15 µM |
| Cc1cccc(NC(=O)C(=O)C(C(=O)c2ccccc2F)C2OC(=O)c3ccccc32)c1Cl (configuration not stated) | > 100 µM |
| COc1ccccc1C#Cc1ccccc1C#CCCCCCC#Cc1ccccc1C#Cc1ccccc1OC | > 100 µM |
| COc1ccc(/C=C/C(=O)Oc2cc(O)cc(O)c2)cc1 | > 100 µM |
| COc1ccc2c(c1)C(c1ccccc1Cl)=Nc1c(n[nH]c1C)N2 | > 25 µM |
| O=C(Cc1cccc(OC(F)(F)F)c1)Nc1ccc(CCCCc2nnc(NC(=O)Cc3ccccn3)s2)nn1 | > 100 µM |
| COC(=O)n1c(=O)n(-c2ccccc2)c(=O)n1C(=O)OC | > 100 µM |
| Oc1[nH]c2ccccc2c1N=Nc1nc(-c2ccc(Cl)c(Cl)c2)cs1 | > 100 µM |
| c1ccc2c(c1)CCc1cc3cc4c(nc3nc1-2)-c1ccccc1CC4 | > 100 µM |
| NC1=NC(c2ccc(Cl)cc2)C2=C(N1)/C(=C/c1ccc(Cl)cc1)CCC2 (configuration not stated) | 28.1 µM |
| CCOC(=O)C1SC(=Nc2ccc(Cl)c(Cl)c2)N=C1C (configuration not stated) | > 100 µM |
| CN1CC(C(=O)C2C(=O)c3ccccc3C2=O)C(=O)C(=O)C(C(=O)C2C(=O)c3ccccc3C2=O)C1 (configuration not stated) | > 100 µM |
| CCCCOC(=O)NC(=O)c1cn(CCSCCOC(=O)NCCCCCCNC(=O)OCCSCCn2cc(C(=O)NC(=O)OCCCC)c(=O)[nH]c2=O)c(=O)[nH]c1=O | > 100 µM |
| CN(C)CCSC(=Nc1ccccc1)N1CCCCC1 | 29.6 µM |
| C=C1C(=O)O[C@H]2[C@H]1CC/C(COC(=O)NCCc1c[nH]c3ccc(OC)cc13)=C\CC[C@@]1(C)O[C@@H]21 | 3.3 µM |
| COc1ccc(C(=O)c2cc3c(OC)c(OC)c(OC)cc3[nH]2)cc1 | > 100 µM |
| CN(C)CCNC(=O)c1cccc2nc3c(nc12)-c1ccccc1C3=O | 34.6 µM |
| c1ccc2c(c1)nc(NC1CCCC1)c1[nH]c(C3CCCC3)nc12 | 11.1 µM |
| O=C1c2c(nc3ccccc3c2-c2ccccc2)CN1Nc1ccccn1 | > 100 µM |
| C=C1C(=O)OCC2C(C(=O)O)=CC3C(C)C(C)=CC123 (configuration not stated) | 46 µM |
| O=C1CN(C(=O)c2ccccc2)Cc2[nH]c3ccccc3c21 | > 100 µM |
| O=C1Cc2c([nH]c3ccc(Br)cc23)-c2ccccc2N1 | > 100 µM |
| O=C(Nc1ccc(Cl)cc1)c1cc(-c2ccc(Cl)cc2)c2sc(=O)[nH]c2n1 | 4.69 µM |
| O=C(CC(=O)N1N=C(N2c3ccccc3Sc3ccccc32)CC1c1ccccc1)Nc1ccc(Cl)cc1 (configuration not stated) | > 100 µM |
| CCCNC(C#N)c1ccc(C(C#N)NCCC)cc1 (configuration not stated) | > 100 µM |
| O=c1c2cc(I)ccc2nc(Sc2ncccc2[N+](=O)[O-])n1Cc1ccccc1 | > 100 µM |
| Cc1ccc(SC2=CC(=O)c3nc4ccccc4c4ccnc2c34)cc1 | 77.7 µM |
| COC(=O)/C=C/c1cc(O)c2c(c1)[C@H](C(=O)OC)[C@@H](c1ccc(O)c(O)c1)O2 | > 100 µM |
| O=C(O)c1ccc(N/C=C2\C(=O)c3ccccc3OC2O)cc1O (configuration not stated) | 93.1 µg/mL |
| O=C1/C(=C/c2ccccc2[N+](=O)[O-])N=C(c2ccccc2)N1C1Nc2cc3c(cc2S1)NC(N1C(=O)/C(=C/c2ccccc2[N+](=O)[O-])N=C1c1ccccc1)S3 (configuration not stated) | > 100 µM |
| CN(NC(=O)CCCl)C1=NCCCCN1 | > 100 µM |

* * *

Recorded TGI for the following molecules
Test system: BT-549 breast
protocolDetails: NCI tumour cell line growth inhibition, 48 h

| molecule | unitsSymbol | qualifierOperator | TGI |
| --- | --- | --- | --- |
| CC(=O)OC1CC2(O)C3CCC4CC(O)CCC4(C)C3CCC2(C)C1C1=CC(=O)OC1 (stereo not given) | µM | = | 0.0895 |
| O=[N+]([O-])c1ccc(N=Nc2c(O)c(S(=O)(=O)O)cc3cc(S(=O)(=O)O)ccc23)cc1 | µM | > | 100 |
| CN(C)C(=O)c1cc2cnc(Nc3ccc(-c4csc5c(=O)cc(N6CCOCC6)oc45)cc3)nc2n1C1CCCC1 | µM | = | 0.686 |
| O=c1c(C=Nc2ccc([N+](=O)[O-])cc2)c(O)n(-c2ccccc2)c(=O)n1-c1ccccc1 | µM | > | 100 |
| Oc1ccc(SCc2cc(O)c(O)c(O)c2)cc1 | µM | = | 85.9 |

* * *

Recorded TGI for the following compounds
System: OVCAR-3 ovarian
protocolDetails: NCI tumour cell line growth inhibition, 48 h
Where a SMILES comes first, the peptide text is derived from it. The star is where a group is joined. Boc = CC(C)(C)OC(=O)*; OBn = c1ccc(CO*)cc1

| compound | qualifierOperator | TGI [µM] |
| --- | --- | --- |
| Cc1cc(NS(=O)(=O)c2ccc(NC(=O)c3cccc4c(Nc5ccc(S(=O)(=O)N=C(N)N)cc5)c5ccccc5nc34)cc2)no1 | > | 100 |
| CC(C)(C)C1(COC(=O)c2ccc(N)cc2)COC1 | > | 100 |
| CCSC1=C(C)N(C=NC(C)(C)C)CC1 | > | 100 |
| NC(=S)Nc1[nH]c(=S)nc2c1SC1=N/C(=C\c3ccco3)C(=O)N12 | > | 100 |
| CNC(=O)c1cc(NC(=O)N(CCC#N)CCN(C(=O)N[C@@H](Cc2ccccc2)C(=O)N[C@@H](CC(C)C)C(=O)NC)c2ccccc2)ccc1OC | > | 100 |
| CO[C@@H]1CC(=O)C2(CC(=O)O[C@@H]2/C=C(\C)CCC=C(C)C)C[C@@H]1O (some centres not stated) | = | 2.28 |
| NC(=O)c1ccc2c(c1)S(=O)(=O)c1ccccc1C2=O | > | 100 |
| CN(C)CCSC(=Nc1ccccc1)N1CCCCC1 | = | 29.8 |
| CCN1c2ccccc2C(Cl)(c2ccc(N(C)C)cc2)c2ccccc21 | = | 8.53 |
| O=C1COc2ccc([N+](=O)[O-])cc2C(=O)C1 | > | 10 |
| COc1ccc(N=N/C(=N/NC(=O)c2ccccc2)c2ccc(N(CCC#N)CCC#N)cc2C)cc1 | > | 100 |
| COc1ccc2c(c1)C(c1ccccc1Cl)=Nc1c(n[nH]c1C)N2 | > | 25 |
| O=C(Nc1ccc(Cl)cc1)c1cc(-c2ccc(Cl)cc2)c2sc(=O)[nH]c2n1 | = | 7.45 |
| C=C1C(=O)O[C@H]2[C@H]1CC/C(COC(=O)NCCc1c[nH]c3ccc(OC)cc13)=C\CC[C@@]1(C)O[C@@H]21 | = | 3.92 |
| Cc1sc(/N=C/c2c[nH]c3ccccc23)c(C#N)c1C | = | 66.1 |
| COc1cccc(N(CN2CC=CC2=O)C(C)=O)c1 | > | 100 |
| C=CC1CC12C(=O)C1OC2(C)C2C(=O)c3c(O)ccc(O)c3C(=O)C12 (configuration not stated) | = | 3.83 |
| O=c1c(C=Nc2ccc([N+](=O)[O-])cc2)c(O)n(-c2ccccc2)c(=O)n1-c1ccccc1 | > | 100 |
| CC(NC(=O)C(NC(=O)OC(C)(C)C)C(C)C)C(=O)N1CCCC1C(=O)NCC(=O)NC(C(=O)NCC(=O)OCc1ccccc1)C(C)C (configuration not stated) (Boc-VAPGVG-OBn; configuration not given here) | > | 100 |
| CO[C@@H]1/C=C(C)/C=C/[C@@H](C)/C=C(\C)C(=O)OC(/C(C)=C/C=C(\C)CNC(=O)[C@H](CO)NC=O)[C@@H](C)/C=C/C=C/[C@H](OC)CC/C=C(C)/C=C/C1 (some centres not stated) | = | 0.605 |
| CC(=O)CCCCO | > | 100 |
| COc1cc(/C=C2\N=C(c3ccccc3)N(c3nc4c(OC)ccc(OC)c4s3)C2=O)cc(OC)c1OC | > | 100 |
| O=C(N/N=C/c1cc(Cl)cc(Cl)c1[O-])c1ccccc1O.O=C(N/N=C/c1cc(Cl)cc(Cl)c1[O-])c1ccccc1O.[Ni+2] | = | 0.835 |
| C1OC1CO[C@@H]1CO[C@H]2[C@@H]1OC[C@H]2OCC1CO1 (some centres not stated) | > | 100 |
| c1ccc2c(c1)nc(NC1CCCC1)c1[nH]c(C3CCCC3)nc12 | = | 27.9 |
| CC(CO)C1C[C@H](O)[C@@]2(C)CC(=O)C=C(CO)[C@@H]2C1 (some centres not stated) | > | 100 |
| C1CCC(OC2CSC2)OC1 (configuration not stated) | > | 100 |
| Cc1ccc(SC2=CC(=O)c3nc4ccccc4c4ccnc2c34)cc1 | > | 54.7 |
| C=CCC1(O)c2cccc(NCCO)c2C(=O)c2c(NCCO)cccc21 | > | 100 |
| COc1cc2cc(C(=O)N3CC(COS(C)(=O)=O)c4c3cc(N)c3ccccc43)[nH]c2c(OC)c1OC (configuration not stated) | > | 100 |
| C=C1C(=O)OCC2C(C(=O)O)=CC3C(C)C(C)=CC123 (configuration not stated) | = | 31.3 |
| CC[C@H](C)[C@H]1NC(=O)[C@@H](NC(=O)[C@@H](CC(C)C)N(C)CC2CCCN2C(=O)C(C)=O)[C@@H](C)OC(=O)[C@H](Cc2ccc(OC)cc2)N(C)C(=O)C2CCCN2C(=O)[C@H](CC(C)C)NC(=O)[C@@H](C)C(=O)[C@H](C(C)C)OC(=O)C[C@@H]1O (some centres not stated) | = | 0.0151 |
| O=c1[nH]c(=O)n(Cc2ccccc2CO)cc1Sc1ccccc1 | = | 42.2 |
| C=CCC(N[C@H](CO)c1ccccc1)c1cn(C(=O)OCC)c2ccccc12 (some centres not stated) | = | 25 |
| CC(=O)OC1CC2(O)C3CCC4CC(O)CCC4(C)C3CCC2(C)C1C1=CC(=O)OC1 (configuration not stated) | = | 0.172 |
| CCCCCCCCCCCCSC(=N)N | = | 26.2 |

Hey, just so you know, these numbers are from PubChem BioAssay (NCI).
